# TARGET_OR_SYSTEM: His-PABP 4EA-Flag (Flag-PABP 4EA) (UniProt P11940 2-636, E178A;E180A;E182A;E189A)
# Sequence (P11940 2-636 E178A/E180A/E182A/E189A): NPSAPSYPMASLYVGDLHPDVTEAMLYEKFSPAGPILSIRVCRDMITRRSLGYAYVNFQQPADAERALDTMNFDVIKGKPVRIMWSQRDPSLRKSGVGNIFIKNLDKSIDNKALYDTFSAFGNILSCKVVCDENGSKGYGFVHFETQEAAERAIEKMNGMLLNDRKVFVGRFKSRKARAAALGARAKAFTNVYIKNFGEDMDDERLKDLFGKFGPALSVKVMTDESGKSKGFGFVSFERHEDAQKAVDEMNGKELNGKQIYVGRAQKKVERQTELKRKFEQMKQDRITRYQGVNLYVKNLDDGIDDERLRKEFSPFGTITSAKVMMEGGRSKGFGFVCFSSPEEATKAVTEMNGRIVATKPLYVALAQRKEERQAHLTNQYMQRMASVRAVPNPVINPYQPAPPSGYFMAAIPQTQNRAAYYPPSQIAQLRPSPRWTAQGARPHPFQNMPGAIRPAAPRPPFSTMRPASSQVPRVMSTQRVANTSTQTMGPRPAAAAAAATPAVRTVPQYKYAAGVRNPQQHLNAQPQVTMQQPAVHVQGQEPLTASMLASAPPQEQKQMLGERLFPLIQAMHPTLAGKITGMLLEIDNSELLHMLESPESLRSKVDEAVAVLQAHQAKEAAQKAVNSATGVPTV
# EXPERIMENT_NOTES: EMSA
ASSAY_ENDPOINT: Kd

Consider the binder shown here: AAAAAAAAAAAAAAAAAAAAAAAAA (ssRNA) [poly(A)25] What is its recorded Kd? ~2.2 nM
